# test system: human CB2 receptor (Homo sapiens, UniProt P34972)
# Construct: expressed in transfected cells; host or cells: human embryonic kidney (HEK) cells, Semliki Forest Virus system, membrane preparation
# Sequence (P34972 whole entry): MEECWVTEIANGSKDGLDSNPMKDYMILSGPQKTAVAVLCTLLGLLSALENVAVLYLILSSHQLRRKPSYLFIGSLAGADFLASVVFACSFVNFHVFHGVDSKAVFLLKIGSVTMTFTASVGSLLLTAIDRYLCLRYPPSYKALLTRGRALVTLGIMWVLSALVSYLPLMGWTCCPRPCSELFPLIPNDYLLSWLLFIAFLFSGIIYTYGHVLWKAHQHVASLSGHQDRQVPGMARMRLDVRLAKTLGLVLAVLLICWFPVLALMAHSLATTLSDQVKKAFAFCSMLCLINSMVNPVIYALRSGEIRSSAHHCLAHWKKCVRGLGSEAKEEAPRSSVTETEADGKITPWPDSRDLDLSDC
# assay explanation: CB2 receptor affinity, displacement of [3H]-CP-55,940
# Format: binding
# assay setup: HEK cell membranes, radioligand [3H]-CP-55,940
measured attribute: inhibition at 10 µM (%)
Reply numerically in %, unit not repeated.

O=C(Nc1cnc(OCC(F)(F)F)c(C2CCCCC2)c1)c1ccccc1
-13
O=C(Nc1cnc(OCC(F)(F)F)c(C2CCCCC2)c1)c1cccnc1
-13
Cc1cc(C(=O)Nc2cnc(OCC(F)(F)F)c(C3CCCCC3)c2)[nH]n1
-9

Quick one: inhibition at 10 µM for COc1cncc(C(=O)Nc2cnc(OCC(F)(F)F)c(C3CCCC3)c2)c1 ?
-9

Quick one: inhibition at 10 µM for O=C(Nc1cnc(OCC(F)(F)F)c(C2CCCCC2)c1)c1ccccn1 ?
3

---

# test system: human CB2 receptor (Homo sapiens)
# Construct: expressed in transfected cells; host or cells: human embryonic kidney (HEK) cells, Semliki Forest Virus system, membrane preparation
# assay explanation: CB2 receptor affinity, displacement of [3H]-CP-55,940
# Assay type: binding
# assay setup: HEK cell membranes, radioligand [3H]-CP-55,940
measured attribute: inhibition at 10 µM (%)
Reply numerically in %, unit not repeated.

Example entries and their recorded answers appear below.
O=C(Nc1cnc(OCC(F)(F)F)c(C2CCCC2)c1)c1cncnc1
-12
O=C(Nc1cnc(OCC(F)(F)F)c(C2CCCC2)c1)c1cccnc1
2

Please look at the following compound next.
Quick one: inhibition at 10 µM for O=C(Nc1cnc(OCC(F)(F)F)c(C2CCCC2)c1)c1ccccn1 ?
-8

---

# test system: human CB1 receptor (Homo sapiens)
# Construct: expressed in transfected cells; host or cells: human embryonic kidney (HEK) cells, Semliki Forest Virus system, membrane preparation
# assay explanation: CB1 receptor affinity, displacement of [3H]-CP-55,940
# Type: binding
# assay setup: HEK cell membranes, radioligand [3H]-CP-55,940
Listing: inhibition at 10 µM of selected molecules
Reply numerically in %, unit not repeated.

Quick one: inhibition at 10 µM for O=C(Nc1cnc(OCC(F)(F)F)c(C2CCCC2)c1)c1ccccn1 ?
28

---

# test system: human CB1 receptor (Homo sapiens, UniProt P21554)
# Construct: expressed in transfected cells; host or cells: human embryonic kidney (HEK) cells, Semliki Forest Virus system, membrane preparation
# Sequence (P21554 whole entry): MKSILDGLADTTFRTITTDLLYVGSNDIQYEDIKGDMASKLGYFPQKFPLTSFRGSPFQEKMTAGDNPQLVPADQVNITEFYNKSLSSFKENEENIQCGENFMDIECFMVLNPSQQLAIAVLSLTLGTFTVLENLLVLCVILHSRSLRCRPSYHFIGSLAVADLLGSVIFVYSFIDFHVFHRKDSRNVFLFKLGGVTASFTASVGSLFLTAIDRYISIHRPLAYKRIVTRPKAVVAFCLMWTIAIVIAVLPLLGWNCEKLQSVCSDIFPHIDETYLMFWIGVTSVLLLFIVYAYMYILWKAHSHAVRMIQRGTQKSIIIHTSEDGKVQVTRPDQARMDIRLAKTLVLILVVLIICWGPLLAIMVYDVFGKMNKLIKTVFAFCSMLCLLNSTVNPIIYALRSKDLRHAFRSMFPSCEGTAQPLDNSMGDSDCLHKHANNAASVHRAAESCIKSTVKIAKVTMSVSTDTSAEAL
# assay explanation: CB1 receptor affinity, displacement of [3H]-CP-55,940
# Type: binding
# assay setup: HEK cell membranes, radioligand [3H]-CP-55,940
Listing: inhibition at 10 µM of selected compounds
Reply numerically in %, unit not repeated.

Example entries and their recorded answers appear below.
O=C(Nc1cnc(OCC(F)(F)F)c(C2CCCC2)c1)c1cccnc1
34
Cc1cc(C(=O)Nc2cnc(OCC(F)(F)F)c(C3CCCC3)c2)[nH]n1
22
COc1cncc(C(=O)Nc2cnc(OCC(F)(F)F)c(C3CCCC3)c2)c1
4

Please look at the following compound next.
Quick one: inhibition at 10 µM for COc1cncc(C(=O)Nc2cnc(OCC(F)(F)F)c(C3CCCCC3)c2)c1 ?
19

---

# test system: human CB2 receptor (Homo sapiens)
# Construct: expressed in transfected cells; host or cells: human embryonic kidney (HEK) cells, Semliki Forest Virus system, membrane preparation
# assay explanation: CB2 receptor affinity, displacement of [3H]-CP-55,940
# Type: binding
# assay setup: HEK cell membranes, radioligand [3H]-CP-55,940
measured attribute: inhibition at 10 µM (%)
Reply numerically in %, unit not repeated.

Example entries and their recorded answers appear below.
COc1cncc(C(=O)Nc2cnc(OCC(F)(F)F)c(C3CCCCC3)c2)c1
-13
Cc1ocnc1C(=O)Nc1cnc(OCC(F)(F)F)c(C2CCCCC2)c1
-8
Cc1cc(C(=O)Nc2cnc(OCC(F)(F)F)c(C3CCCC3)c2)[nH]n1
-12
Cc1ocnc1C(=O)Nc1cnc(OCC(F)(F)F)c(C2CCCC2)c1
0

Please look at the following molecule next.
Quick one: inhibition at 10 µM for O=C(Nc1cnc(OCC(F)(F)F)c(C2CCCC2)c1)c1ccccc1 ?
-5

---

# test system: human CB1 receptor (Homo sapiens)
# Construct: expressed in transfected cells; host or cells: human embryonic kidney (HEK) cells, Semliki Forest Virus system, membrane preparation
# assay explanation: CB1 receptor affinity, displacement of [3H]-CP-55,940
# Type: binding
# assay setup: HEK cell membranes, radioligand [3H]-CP-55,940
Give met when the value for inhibition at 10 µM is at least 30%. Give not met when it is less.

Given the entry O=C(Nc1cnc(OCC(F)(F)F)c(C2CCCC2)c1)c1ccccc1 , answer whether its inhibition at 10 µM meets or surpasses 30%.
met

Given the entry O=C(Nc1cnc(OCC(F)(F)F)c(C2CCCC2)c1)c1cncnc1 , answer whether its inhibition at 10 µM meets or surpasses 30%.
not met

---

# test system: human CB1 receptor (Homo sapiens)
# Construct: expressed in transfected cells; host or cells: human embryonic kidney (HEK) cells, Semliki Forest Virus system, membrane preparation
# assay explanation: CB1 receptor affinity, displacement of [3H]-CP-55,940
# Assay type: binding
# assay setup: HEK cell membranes, radioligand [3H]-CP-55,940
measured attribute: inhibition at 10 µM (%)
Reply numerically in %, unit not repeated.

Example entries and their recorded answers appear below.
O=C(Nc1cnc(OCC(F)(F)F)c(C2CCCCC2)c1)c1ccccn1 [Example 11]
33
O=C(Nc1cnc(OCC(F)(F)F)c(C2CCCCC2)c1)c1cccnc1 [Example 8]
28
Cc1ocnc1C(=O)Nc1cnc(OCC(F)(F)F)c(C2CCCCC2)c1 [Example 10]
13
Cc1cc(C(=O)Nc2cnc(OCC(F)(F)F)c(C3CCCCC3)c2)[nH]n1 [Example 9]
27
Cc1ocnc1C(=O)Nc1cnc(OCC(F)(F)F)c(C2CCCC2)c1 [Example 3]
26

Please look at the following compound next.
Quick one: inhibition at 10 µM for O=C(Nc1cnc(OCC(F)(F)F)c(C2CCCCC2)c1)c1ccccc1 [Example 13] ?
38
